B1: F1*; the commonest letter at each place (parent)
chain: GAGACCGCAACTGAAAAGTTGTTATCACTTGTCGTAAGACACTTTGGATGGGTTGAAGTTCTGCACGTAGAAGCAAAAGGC

variants of: B1; test: fraction ligated after 30 min (ligated reads / total reads); higher = more ligase activity; conditions: with F1*sub RNA substrate (template-directed ligation), 42 °C
Recorded measurements of fraction ligated, one per entry

ordered residues	fraction ligated
GAGACCGCAACTGAAAAGTTGTTATCACTTGTCGTAAGACAATTTGGCTGGGTTGAAGTTCTGCACGTAGAAGCAAAAGGC	0.761
GAGACCGCAACTGAAAAGTTGTTATCACTTATCGTAAGACACTTTGGATGGGTTTAAGTTCTGCACGTAGAAGCAAAAGGC	0.767
GAGACCGCAACTGAAAAGTTGTTATCACATGTCGTAAGACACTTTGGATGGGTTGAGGTTCTGCACGTAGAAGCAAAAGGC	0.818
GAGACCGCAACTGAAAAGTTGTAATCACTTGTCGTAAGACACTTTAGATGGGTTGAAGTTCTGCACGTAGAAGCAAAAGGC	0.749
GAGACCGCAACTGAAAAGTTGTTATCCCTTGTCGTAAGACACTTTGGATCGGTTGAAGTTCTGCACGTAGAAGCAAAAGGC	0.0749
GAGACCGCAACTGAAAAGTTGTTATCACTTGTCGTAAGACACTTTGGATGGGTTCCTGTTCTGCACGTAGAAGCAAAAGGC	0.0335
GAGACCGCAACTGAAAAGTTGTTATCACTTGTCGTAAGACATTTTGGATGGGTTGCAGTTCTGCACGTAGAAGCAAAAGGC	0.797
GAGACCGCAACTGAAAAGTTGTTATTACTTGTCGTAAGACGCTTTGGATGGGTTGAAGTTCTGCACGTAGAAGCAAAAGGC	0.813
GAGACCGCAACTGAAAAGTTGTTATCACCTGTCGAAAGACACTTTGGATGGGTTGAAGTTCTGCACGTAGAAGCAAAAGGC	0.843
GAGACCGCAACTGAAAAGTTGTTATCACTTGTCATAAGACACTTTGGATGGGTTGGAGTTCTGCACGTAGAAGCAAAAGGC	0.775
GAGACCGCAACTGAAAAGTTGTTATCACTTGTCGTAAGACACTTTGGAGGGGTTGTAGTTCTGCACGTAGAAGCAAAAGGC	0.191
GAGACCGCAACTGAAAAGTTGTTATCACTTGTCGTAAGGCACTTTGGACGGGTTGAAGTTCTGCACGTAGAAGCAAAAGGC	0.714
GAGACCGCAACTGAAAAGTTGTTATCCCTTGTCGTGAGACACTTTGGATGGGTTGAAGTTCTGCACGTAGAAGCAAAAGGC	0.821
GAGACCGCAACTGAAAAGTTGTTATCACTTGTCGTAAGACACTTGGGATCGGTTGAAGTTCTGCACGTAGAAGCAAAAGGC	0.0186
GAGACCGCAACTGAAAAGTTGTTATCACTGGTCGTAAGACACTTTGGATGGGTTGTAGTTCTGCACGTAGAAGCAAAAGGC	0.797
GAGACCGCAACTGAAAAGTTGTTATCACTTGTCGTAAGACACTCTGGATAGGTTGAAGTTCTGCACGTAGAAGCAAAAGGC	0.406
GAGACCGCAACTGAAAAGTTGTTATCATTTGTCGTAAGACACTTTGAATGGGTTGAAGTTCTGCACGTAGAAGCAAAAGGC	0.787
GAGACCGCAACTGAAAAGTTGTTATCACTTGTCGCAAGACCCTTTGGATGGGTTGAAGTTCTGCACGTAGAAGCAAAAGGC	0.777
GAGACCGCAACTGAAAAGTTGTTATCACTTGTTGTAAGAGACTTTGGATGGGTTGAAGTTCTGCACGTAGAAGCAAAAGGC	0.877
GAGACCGCAACTGAAAAGTTGTTTTCACTTGTCGTAAGAGACTTTGGATGGGTTGAAGTTCTGCACGTAGAAGCAAAAGGC	0.582
GAGACCGCAACTGAAAAGTTGTTATCACTTGTCGTTAGCCACTTTGGATGGGTTGAAGTTCTGCACGTAGAAGCAAAAGGC	0.821
GAGACCGCAACTGAAAAGTTGTAATCACTAGTCGTAAGACACTTTGGATGGGTTGAAGTTCTGCACGTAGAAGCAAAAGGC	0.797
GAGACCGCAACTGAAAAGTTGTTATCACTTGTCGTACGAGACTTTGGATGGGTTGAAGTTCTGCACGTAGAAGCAAAAGGC	0.809
GAGACCGCAACTGAAAAGTTGTTATCAATTGTCGTAAGACTCTTTGGATGGGTTGAAGTTCTGCACGTAGAAGCAAAAGGC	0.827
GAGACCGCAACTGAAAAGTTGTTATCACTTGTCGTTAGACACTTTGGATCGGTTGAAGTTCTGCACGTAGAAGCAAAAGGC	0.467
GAGACCGCAACTGAAAAGTTGTCATCACTTGTCGTAAGACACTTTGGATGGGTTAAAGTTCTGCACGTAGAAGCAAAAGGC	0.783
GAGACCGCAACTGAAAAGTTGTTATCACTTGTCGTAAGACACATTGGATGGGTTGCAGTTCTGCACGTAGAAGCAAAAGGC	0.79
GAGACCGCAACTGAAAAGTTGTTACCACTTGTGGTAAGACACTTTGGATGGGTTGAAGTTCTGCACGTAGAAGCAAAAGGC	0.144
GAGACCGCAACTGAAAAGTTGTTATCACTTGTCGTACCACACTTTGGATGGGTTGAAGTTCTGCACGTAGAAGCAAAAGGC	0.818
GAGACCGCAACTGAAAAGTTGTTATCACTTGTCGTAACACACTTTGGATCGGTTGAAGTTCTGCACGTAGAAGCAAAAGGC	0.0192
GAGACCGCAACTGAAAAGTTGTTATCAGTTGTCGTAAGACACTTTGGATGGGTTCAAGTTCTGCACGTAGAAGCAAAAGGC	0.28
GAGACCGCAACTGAAAAGTTGTTATCACTTCTCCTAAGACACTTTGGATGGGTTGAAGTTCTGCACGTAGAAGCAAAAGGC	0.804
GAGACCGCAACTGAAAAGTTGTTATCAATTGTCGCAAGACACTTTGGATGGGTTGAAGTTCTGCACGTAGAAGCAAAAGGC	0.807
GAGACCGCAACTGAAAAGTTGTTATCACTTGTTGTACGACACTTTGGATGGGTTGAAGTTCTGCACGTAGAAGCAAAAGGC	0.868
GAGACCGCAACTGAAAAGTTGTTATCACTTGTCGTACGACACATTGGATGGGTTGAAGTTCTGCACGTAGAAGCAAAAGGC	0.832
GAGACCGCAACTGAAAAGTTGTTATCACTAGTCGTAAGACACTTTCGATGGGTTGAAGTTCTGCACGTAGAAGCAAAAGGC	0.795
GAGACCGCAACTGAAAAGTTGTTATCCCTTGTGGTAAGACACTTTGGATGGGTTGAAGTTCTGCACGTAGAAGCAAAAGGC	0.815
GAGACCGCAACTGAAAAGTTGTTATCGCTTGTCGTAAGACACTTTGGATCGGTTGAAGTTCTGCACGTAGAAGCAAAAGGC	0.161
GAGACCGCAACTGAAAAGTTGTTATCACTTCTCGTAAAACACTTTGGATGGGTTGAAGTTCTGCACGTAGAAGCAAAAGGC	0.811
GAGACCGCAACTGAAAAGTTGTTATCACTTGTCGTAAGACACTCTGGACGGGTTGAAGTTCTGCACGTAGAAGCAAAAGGC	0.494
GAGACCGCAACTGAAAAGTTGTTATCAGTTGTCGTAAGACACCTTGGATGGGTTGAAGTTCTGCACGTAGAAGCAAAAGGC	0.798
GAGACCGCAACTGAAAAGTTGTTATCACTTGTCCTAAGACACTTTGGATGGGTTGTAGTTCTGCACGTAGAAGCAAAAGGC	0.812
GAGACCGCAACTGAAAAGTTGTTTTCACTTGTCGTAAGACAGTTTGGATGGGTTGAAGTTCTGCACGTAGAAGCAAAAGGC	0.769
GAGACCGCAACTGAAAAGTTGTTATCTCTTATCGTAAGACACTTTGGATGGGTTGAAGTTCTGCACGTAGAAGCAAAAGGC	0.848
GAGACCGCAACTGAAAAGTTGTTATCACTTGTCGGAAGACACTTTTGATGGGTTGAAGTTCTGCACGTAGAAGCAAAAGGC	0.784

Reference source: the supplement of paper PMC6755084
